test summary: Plasma concentration Lewis rat at 1 mg/kg, po after 24 hrs
Assay type: ADME, organism-based
Rule: concentration at 24 h below 30 nM gives Met, anything at or above gives Not met.

Record excerpt, results attached:
Task: # check: concentration at 24 h < 30 nM for "CCCc1c(-c2nc(-c3ccc(CN4CC(C(=O)O)C4)cc3)no2)noc1-c1ccccn1"
Output: Met

Task: # check: concentration at 24 h < 30 nM for "CC(C)c1c(-c2nc(-c3ccc(CN4CC(C(=O)O)C4)cc3)no2)noc1-c1ccccn1"
Output: Not met

Task: # check: concentration at 24 h < 30 nM for "O=C(O)C1CN(Cc2ccc(-c3noc(-c4onc(-c5ccccn5)c4C(F)(F)F)n3)cc2)C1"
Output: Not met

Task: # check: concentration at 24 h < 30 nM for "CCCc1c(-c2ccccn2)noc1-c1nc(-c2ccc(CN3CC(C(=O)O)C3)cc2)no1"
Output: Met

New cases:
Task: # check: concentration at 24 h < 30 nM for "CCc1c(-c2nc(-c3ccc(CN4CC(C(=O)O)C4)cc3)no2)noc1-c1ccccn1"
Output: Not met
